Experiment: Pharmacokinetic evaluation in mice after single IV and PO administration
Format: in vivo
Settings: female, mouse; Balb/c mice, plasma, PO
metricName: half-life (h)
# unit: h | format: bare number

Task item: Given CCS(=O)(=O)c1ccc(CNC(=O)c2cc3c(s2)C(C(C)C)N(C[C@H]2CC[C@H](C(F)(F)F)CC2)C3)nc1 (single isomer, unassigned) , state its recorded half-life.
Reply: 8.7

---

Assay: Pharmacokinetic evaluation in mice after single IV and PO administration
Assay type: in vivo
Conditions: female, mouse; Balb/c mice, plasma, IV; read-out: Vdss
metricName: Vd (L/kg)
# unit: L/kg | format: bare number

Task item: Given CCS(=O)(=O)c1ccc(CNC(=O)c2cc3c(s2)C(C(C)C)N(C[C@H]2CC[C@H](C(F)(F)F)CC2)C3)nc1 (single isomer, unassigned) [Example 1] , state its recorded Vd.
Reply: 3.5
